Molecular target: Dopaminergic D1 (Homo sapiens)
Sequence (P21728 whole entry): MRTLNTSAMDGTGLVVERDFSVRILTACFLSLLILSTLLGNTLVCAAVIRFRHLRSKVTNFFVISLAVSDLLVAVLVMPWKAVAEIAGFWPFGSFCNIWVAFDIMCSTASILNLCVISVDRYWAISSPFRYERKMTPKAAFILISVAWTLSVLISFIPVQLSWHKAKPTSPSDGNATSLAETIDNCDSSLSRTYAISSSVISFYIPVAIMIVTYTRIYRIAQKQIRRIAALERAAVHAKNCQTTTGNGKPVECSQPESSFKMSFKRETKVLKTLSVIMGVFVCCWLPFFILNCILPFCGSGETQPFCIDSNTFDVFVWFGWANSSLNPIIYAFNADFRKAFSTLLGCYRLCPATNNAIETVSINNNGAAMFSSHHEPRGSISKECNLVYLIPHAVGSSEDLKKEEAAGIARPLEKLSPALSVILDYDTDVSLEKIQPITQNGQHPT
Experiment: competitive radioligand binding, Dopaminergic D1
Conditions: compound concentration of 1 μM; read-out: radio-labelled ligand displacement, Dopaminergic D1
Structures can show the parent of a compound that is named as a salt.
MEASURED METRIC: inhibition at 1 µM

Note to self: inhibition at 1 µM of Cc1cc2c3c(n(Cc4ccccc4)c2s1)CC1CCC3N1C (stereo not shown) [3.13(1)•HCl] with Dopaminergic D1 (Homo sapiens) was 40%

Considering Cc1ccc(CCCn2c3c(c4scc(Cl)c42)CN(C)CC3)cn1 [2.12(5)•HCl] , its inhibition at 1 µM with Dopaminergic D1 (Homo sapiens) was recorded as 75%

Cc1cc2c(s1)c1c(n2-c2cccc(F)c2)CCN(C)C1 [2.4(3)•HCl] tested on Dopaminergic D1 (Homo sapiens) gave inhibition at 1 µM: 5%

Lab note: molecule Cc1cc2c(s1)c1c(n2Cc2ccccc2)CCN(C)C1.Cl [2.5(1)•HCl] tested on Dopaminergic D1 (Homo sapiens); recorded inhibition at 1 µM was 5%

---

Record form. Attribute: inhibition at 1 µM. Fill in for each entry.
Target: Serotoninergic 5-HT2A (Homo sapiens, UniProt P28223)
Sequence (P28223 whole entry): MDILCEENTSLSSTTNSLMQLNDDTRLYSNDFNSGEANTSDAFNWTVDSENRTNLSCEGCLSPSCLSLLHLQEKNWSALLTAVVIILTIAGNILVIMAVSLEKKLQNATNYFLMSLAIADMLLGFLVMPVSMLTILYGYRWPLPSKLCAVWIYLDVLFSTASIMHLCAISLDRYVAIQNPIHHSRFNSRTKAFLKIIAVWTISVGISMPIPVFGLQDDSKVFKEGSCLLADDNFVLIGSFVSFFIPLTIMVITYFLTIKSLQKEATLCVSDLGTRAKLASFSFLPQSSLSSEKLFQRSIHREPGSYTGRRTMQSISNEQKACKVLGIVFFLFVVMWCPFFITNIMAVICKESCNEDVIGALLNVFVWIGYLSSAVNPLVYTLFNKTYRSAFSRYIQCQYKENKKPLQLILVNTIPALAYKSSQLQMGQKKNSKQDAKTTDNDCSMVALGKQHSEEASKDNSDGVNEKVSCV
Test: competitive radioligand binding, Serotoninergic 5-HT2A
Conditions: read-out: radio-labelled ligand displacement, Serotoninergic 5-HT2A
Counter-ions that a name gives are not always drawn.
Just the number plus its unit, please.

What the record says about Cc1cc2c3c(n(Cc4ccccc4)c2s1)CCN(C)C3.Cl [3.5(1)•HCl] : inhibition at 1 µM is 100%

Note to self: inhibition at 1 µM recorded for Cc1ccc(Cn2c3c(c4sc(Cl)cc42)C(C)N(C)C(C)C3)cn1 (centres unmarked) [2.5(4)•HCl] was 91%

// recorded inhibition at 1 µM for Cc1cc2c(s1)c1c(n2-c2cccc(F)c2)CCN(C)C1 [2.4(3)•HCl] : 41%

Lab note: measured inhibition at 1 µM of Cc1cc2c(s1)c1c(n2Cc2ccccc2)CCN(C)C1.Cl [2.5(1)•HCl] was 93%

In plain terms, Cc1cc2c(s1)c1c(n2CCc2ccccc2)CCN(C)C1.Cl [2.6(1)•HCl] has a documented inhibition at 1 µM of 99%

---

Target: UniProt:Q9Y5N1
Sequence (Q9Y5N1 whole entry): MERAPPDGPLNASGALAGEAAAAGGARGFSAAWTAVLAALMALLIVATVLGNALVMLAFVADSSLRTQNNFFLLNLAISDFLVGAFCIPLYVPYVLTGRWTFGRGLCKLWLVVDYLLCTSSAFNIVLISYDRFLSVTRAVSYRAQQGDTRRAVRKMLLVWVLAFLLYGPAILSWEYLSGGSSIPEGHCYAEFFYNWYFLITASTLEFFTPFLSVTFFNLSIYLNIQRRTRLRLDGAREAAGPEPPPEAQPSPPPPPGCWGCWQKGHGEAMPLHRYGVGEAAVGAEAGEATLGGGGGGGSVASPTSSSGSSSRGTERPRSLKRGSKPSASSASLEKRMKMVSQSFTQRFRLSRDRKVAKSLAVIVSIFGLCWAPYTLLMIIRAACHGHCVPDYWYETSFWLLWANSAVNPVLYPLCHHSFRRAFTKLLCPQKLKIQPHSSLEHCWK
Experiment: competitive radioligand binding, Histaminergic H3
Conditions: compound concentration of 1 μM; in % (unit assumed)
Where a name gives a salt, the structure may show the parent alone.
MEASURED METRIC: radio-labelled ligand displacement, Histaminergic H3
Give only the figure.

Briefly, radio-labelled ligand displacement, Histaminergic H3 measured for Cc1ccc(C=CCn2c3c(c4cc(C)sc42)CN(C)CC3)cc1 [3.11(2)•HCl] : 7

Form field radio-labelled ligand displacement, Histaminergic H3, entry Cc1cc2c3c(n(CCc4ccc(Cl)cc4)c2s1)C(C)CN(C)C3 (stereo not drawn) [3.6(4)•HCl] : 8

For this compound ( CN1CCc2c(c3cc(Cl)sc3n2CCCc2cccc(F)c2)C1 [3.12(6)•HCl] ), measured radio-labelled ligand displacement, Histaminergic H3 is −1

Lab note: Cc1csc2c1c1c(n2CCCc2ccccc2)CCN(C)C1 [3.12(1)•HCl] gave radio-labelled ligand displacement, Histaminergic H3 of 11

Lab note: Cc1ccc(CCCn2c3c(c4c(Cl)csc42)CN(C)CC3)cc1 [3.12(5)•HCl] gave radio-labelled ligand displacement, Histaminergic H3 of −3

get_value(item= Cc1cc2c3c(n(CC(O)c4ccccc4)c2s1)CCN(C)C3.Cl (stereo not drawn) [3.7(1)•HCl] , readout=radio-labelled ligand displacement, Histaminergic H3) returns −3
